Reference source for all entries: PubChem BioAssay (NCI)

# Tested on: DU-145 prostate
# Protocol notes: NCI tumour cell line growth inhibition, 48 h
Kindly state TGI for each of the entries shown.

Examples with answers:
                                   molecule  value_measured
0    Cc1ccc2c(c1)c1ccc3c(c1n2C)C(=O)C=CC3=O         > 10 µM
1  O=C(Nc1ncc(Cc2cccc(C(F)(F)F)c2)s1)c1ccc2c(c1)OCCO2         14.8 µM
2  O=c1onc2n1-c1cc(Cl)ccc1C(=S)N1CSCC21 (centres undefined)        > 100 µM
3  CO/N=C(/C(=O)OC)c1ccccc1COc1ccccc1C(F)(F)F        > 100 µM
4  C=C(C)[C@H]1C2=CC(C(=O)OC)=C(C[C@H](C(=C)C)[C@@H](O)[C@@H](O)C3=C[C@H]1OC3=O)O2        > 100 µM
5         CCSc1nc(N=Cc2ccccc2O)c2cn[nH]c2n1        > 100 µM
6  COc1ccc(N2C(=O)C3c4[nH]c5cc(C)ccc5c4C4CCC(C(C)(C)C)CC4C3C2=O)cc1 (centres undefined)         > 10 µM
7                        CNc1nncc2[nH]cnc12        > 100 µM

For the 4 molecules below, give their TGI values.
1. CNCCCNc1ccnc2cc(Cl)ccc12
2. O=C(OCC(Cl)(Cl)Cl)N1CC[C@H](C2CCCCC2)C1
3. CN1CCN(Cc2cc3c(nn2)-c2ccccc2C3=O)CC1
4. O=c1cccc(C#CC#C[C@@H]2O[C@H]2CO)o1

1: 38.5 µM; 2: 31.8 µM; 3: > 100 µM; 4: 5.97 µM

For the 2 molecules below, give their TGI values.
1. Nc1ncc2c(n1)-c1ccccc1OC2N1CCCC1 (centres undefined)
2. CN(C)CCN1CCC(Cc2ccccc2)CC1

> 100 µM
> 80 µM

* * *

Kindly state TGI for each of the entries shown.
# Tested on: DU-145 prostate
# Protocol notes: NCI tumour cell line growth inhibition, 48 h

Examples with answers:
Compound	TGI
COC(=O)/C=C/c1cc(OC(C)=O)c2c(c1)C(C(=O)OC)C(c1ccc(OC(C)=O)c(OC(C)=O)c1)O2 (centres undefined)	> 100 µM
O=C1c2cccc3cccc(c23)C(=O)N1CCCNCCCCNCCCNCCCN1C(=O)c2cccc3cccc(c23)C1=O	1.53 µM
O=C(O)C(O)C(O)C(O)C(O)CO (centres undefined)	> 100 µM
CN(Cc1cnc2nc(N)nc(N)c2n1)c1ccc(C(=O)N[C@@H](CCS(=O)(=O)O)C(=O)O)cc1	> 100 µM
C=CC12CCN(CC1)C(C(O)c1ccnc3ccc(OC)cc13)C2 (centres undefined)	> 100 µM

For the 4 compounds below, give their TGI values.
1. N#Cc1sc2c(c1OC(=O)c1ccc(C(F)(F)F)cc1)c(=O)n(-c1ccccc1)c(=S)n2-c1ccccc1
2. Clc1sc(Cl)c2c1[C@@H](Cl)C[C@@H]2Br
3. CC(C)(C)OC(=O)NC(CSSCC(NC(=O)OC(C)(C)C)C(=O)O)C(=O)O (centres undefined)
4. CCCCCCn1c(-c2ccc(C(=O)O/N=C(\N)c3ccc4c(c3)OCO4)cc2)nc(-c2ccccc2)c1-c1ccccc1

1: > 100 µM; 2: > 100 µM; 3: > 100 µM; 4: 2.66 µM

For the 2 compounds below, give their TGI values.
1. COc1ccc(-c2nc3ccccc3c(=S)n2OC(C)=O)cc1
2. COc1cc2c(cc1OCCCCCN1CCN(c3ncnc4ccccc34)CC1)N=CC1CCCN1C2=O (centres undefined)

1: > 25 µM; 2: 0.97 µM

For the 2 compounds below, give their TGI values.
1. COc1ccc(-c2cc(=O)oc3c4c(ccc23)OCN(Cc2ccc(F)cc2)C4)cc1
2. CC1OC(O[C@H]2C3C=CO[C@@H](OC4OC(CO)C(O)C(O)C4O)C3[C@@]3(COC(=O)/C=C/c4ccccc4)O[C@@H]23)C(O)C(O)C1O (some centres undefined)

59.9 µM
> 100 µM

For the 6 compounds below, give their TGI values.
1. Cn1c2ccccc2c2c(=S)c3ccccc3ccc21
2. O=C(c1ccccc1)c1ccc2c(c1)NC(=O)c1ccccc1SSc1ccccc1C(=O)N2
3. C=C(CN(C)Cc1ccccc1)c1ccc(NC(=O)c2ccc(C(=C)CN(C)Cc3ccccc3)cc2)cc1
4. C[C@@H]1CC[C@H]2[C@H]1[C@H]1[C@@H](CC[C@]2(C)N=C=S)C1(C)C
5. CSC[C@H](NC(=O)COc1cccc2cnccc12)C(=O)NC(Cc1ccccc1)C(O)C(=O)N1CSC[C@H]1C(=O)NC(C)(C)C (some centres undefined)
6. O=c1c2c(no[n+]2[O-])c2ccccc2n1-c1ccccc1

> 100 µM
> 100 µM
> 100 µM
49.6 µM
> 100 µM
> 74.2 µM

* * *

# System: M14 melanoma
# Protocol notes: NCI tumour cell line growth inhibition, 48 h
Kindly state TGI for each of the entries shown.

Examples with answers:
In [3]: df
Out[3]:
                                   compound  test_readout  value_measured
0  CC[C@@H]1NC(C(=O)OC)Cc2c1[nH]c1ccccc21 (stereo partly specified)           TGI        > 100 µM
1        Cc1nc2ccccc2c(-n2cccn2)c1CCn1cccn1           TGI        > 100 µM
2  CC1=C(C(=O)Nc2ccccc2)C(c2ccc(Cl)c(Cl)c2)C(C(=O)Nc2ccccc2)=C(C)N1           TGI         25.1 µM

For the 3 compounds below, give their TGI values.
1. CN(C)CCN1CCC(Cc2ccccc2)CC1
2. Cc1ccc2c(c1)c1ccc3c(c1n2C)C(=O)C=CC3=O
3. COc1cccc2c1O/C(=C\c1ccc([N+](=O)[O-])s1)C2=O

["> 80 µM", "4.54 µM", "> 100 µM"]

* * *

# System: M14 melanoma
# Protocol notes: NCI tumour cell line growth inhibition, 48 h; in the data active means GI50 below about 0.43 µM; inactive means the rest
API: response.call in active, inactive

What did this assay record as the result for NC(=S)N/N=C/c1ncccc1O ?
inactive

What did this assay record as the result for Nc1c(C(=O)Nc2ccccn2)sc2nc3c(cc12)C(=O)CCC3 ?
inactive

* * *

# System: HL-60(TB) leukemia
# Protocol notes: NCI tumour cell line growth inhibition, 48 h
Test readout: TGI (µM)
Numbers only, in µM.

Examples with answers:
>>> df
                            smiles_string  test_readout  value_measured
0        O=C1C/C(Br)=C\c2ccccc2-c2ccccc21           TGI             5.7
1  O=C1C(=Nc2ccc(Nc3ccccc3)cc2)Oc2ccccc21           TGI             4.9

Shift focus to the following entry.
Quickly give me recorded TGI for CCN(Cc1c(F)cccc1OC)c1ccc(CO)c(Cl)c1
43.3

* * *

# System: NCI-H23 lung
# Protocol notes: NCI tumour cell line growth inhibition, 48 h
Where a SMILES comes first, the peptide text is derived from it. The star is where a group is joined. Palmitoyl = CCCCCCCCCCCCCCCC(=O)*
// label = Condition met if TGI is not less than 10 µM, otherwise Condition not met

Consider the worked cases shown below.
Molecule	Class name
O=C1c2cccc3cccc(c23)C(=O)N1CCN(CCO)CCO	Condition met
COc1ccc(CNc2c3ccccc3nc3ccccc23)cc1F	Condition met
Cn1c2ccccc2c2c(=S)c3ccccc3ccc21	Condition met
CCCCOCCOC1=C(Cl)C(=O)c2c(O)ccc(O)c2C1=O	Condition not met
O=C1c2cccc3cccc(c23)C(=O)N1CCCNCCCCNCCCNCCCN1C(=O)c2cccc3cccc(c23)C1=O	Condition not met

Tell me whether TGI is at least 10 µM here: O=C(O)C(O)C(O)C(O)C(O)CO (centres undefined)
Condition met

Tell me whether TGI is at least 10 µM here: COC(=O)C1=CN(CC2=CC(=O)C(C)=CC2=O)C=C(C(=O)OC)C1c1ccccc1OC
Condition met

Tell me whether TGI is at least 10 µM here: O=C(CN1C(=O)CC(c2ccccc2)(c2ccccc2)C1=O)N1CCN(CCO)CC1
Condition met

Tell me whether TGI is at least 10 µM here: CCCCCCCCCCCCCCCC(=O)N1CCCC1C(=O)NCC(=O)NC(Cc1ccccc1)C(=O)N1CCCC1C(=O)NC(CO)C(=O)NC(Cc1ccc(O)cc1)C(=O)NC(CCCCN)C(=O)NC(CC(C)C)C(=O)NC(CCCN=C(N)N)C(=O)N1CCCC1C(=O)NCC(N)=O (centres undefined) (Palmitoyl-PGFPSYKLRPG-NH2; configuration not given here)
Condition met

* * *

# Test system: NCI-H460 lung
# Protocol notes: NCI tumour cell line growth inhibition, 48 h
Test readout: TGI

Examples with answers:
In [3]: df
Out[3]:
                                   compound  target_or_test_system  value_measured
0  COC1OC2COC(c3ccccc3)OC2C(O)C1OC(=S)c1ccccc1 (configuration not stated)          NCI-H460 lung        > 100 µM
1  COc1ccc(Cl)cc1NC(=O)c1ccc(NC2=C(Cl)C(=O)N(Cc3ccccc3)C2=O)cc1          NCI-H460 lung        > 100 µM
2   O=C(OCC(Cl)(Cl)Cl)N1CC[C@H](C2CCCCC2)C1          NCI-H460 lung         35.1 µM
3    O=C1C(=Nc2ccc(Nc3ccccc3)cc2)Oc2ccccc21          NCI-H460 lung         30.5 µM
4                  O=C(NCCCl)O/N=C/c1cccnc1          NCI-H460 lung        > 100 µM
5   CCOC(=O)Cc1csc(Nc2ccccc2[N+](=O)[O-])n1          NCI-H460 lung        > 100 µM

Quickly give me recorded TGI for COc1ccc(/C=N/NC(=O)c2ccc(O)c(CN(C)C)c2)cc1
> 100 µM
